The values you see were collected from paper PMC10165932.

Tested on: B16F0 murine melanoma cell line
METHOD: cells
Assay type: cell-based
EXPERIMENTAL_CONDITIONS: 24 h
Where a SMILES comes first, the peptide text is derived from it.
Quick reference: IC50 of the listed items.
Note: unit µM is implicit; provide only the numeric part.

// worked examples, IC50 included
CC(=O)N[C@@H](Cc1ccccc1)C(=O)N[C@@H](Cc1ccccc1)C(=O)N[C@@H](Cc1ccc(O)cc1)C(=O)O [Compound 4, Ac-FFY-OH] (Ac-Phe-Phe-Tyr-OH); 246
C/C(=N\NC(N)=S)c1ccc(C(=O)N[C@@H](Cc2ccccc2)C(=O)N[C@@H](Cc2ccccc2)C(=O)N[C@@H](Cc2ccc(O)cc2)C(=O)O)cc1; 162
CC(=O)N[C@@H](Cc1ccccc1)C(=O)N[C@@H](Cc1ccc(O)cc1)C(=O)N[C@@H](Cc1ccc(O)cc1)C(=O)O [Compound 5, Ac-FYY-OH] (Ac-Phe-Tyr-Tyr-OH); 175

In one line, give reported IC50 of the entry CC(=O)N[C@@H](Cc1ccccc1)C(=O)N[C@@H](Cc1c[nH]c2ccccc12)C(=O)N[C@@H](Cc1ccc(O)cc1)C(=O)O [Compound 6, Ac-FWY-OH] (Ac-Phe-Trp-Tyr-OH) .
141

Provide only the value of recorded IC50 for CC(C(=O)N[C@@H](Cc1ccccc1)C(=O)N[C@@H](Cc1ccccc1)C(=O)N[C@@H](Cc1ccc(O)cc1)C(=O)O)c1cccc(C(=NNC(N)=S)c2ccccc2)c1 (mixture of isomers)
146
